Molecular target: T1, his-tagged human BCMA protein (ACROBiosystems, catalog # BCA-H522y-100 ug) (human, UniProt Q02223 1-54)
T1 construct: limits of the bought construct are not otherwise stated; also called recombinant his-tagged human BCMA; not shown: his tag of the bought protein
T1 sequence: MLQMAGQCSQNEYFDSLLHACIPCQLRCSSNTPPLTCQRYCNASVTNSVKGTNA
Assay: SPR (Biacore T200), antibody captured on anti-human Fc, his-tagged human BCMA as analyte; fit with ka1/kd1/ka2/kd2 (model not named)
Kd values for the binders below.
Write down the numeric answer in nM and omit the unit.

Some entries whose results are on file:
Per the records, this binder ( BCA7-2D11 antibody (antibody, V domains shown) VH: EVQLVESGGGLVKPGGSLRLSCAASGFTSSTAWMSWVRQAPGKGLEWVGRIKSKSDGGTTDYAAPVKGRFTISRDDSKNTLFLQMNSLKTEDTAVYYCAKGGGTYGYWGQGTTVTVSS VL: SYELTQPASVSGSPGQSVTISCTGTSSVVGGHDYVSWYQQHPGKAPKLMIYDVSNRPSGVSNRFSGSKSGNTASLTISGLQAEDEADYYCGSYTSSGSYVFGTGTKVTVL ) has Kd equal to 21.9

Per the records, this binder ( BCA7-2E8 antibody (antibody, V domains shown) VH: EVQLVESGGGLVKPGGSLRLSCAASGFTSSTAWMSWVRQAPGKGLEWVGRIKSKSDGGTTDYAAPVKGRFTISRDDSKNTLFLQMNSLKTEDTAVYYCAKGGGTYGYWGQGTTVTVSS VL: QSVLTQPASVSGSPGQSVTISCTGTSSDVGGYNYVSWYQQHPGKAPKLMIYDVSNRPSGVSNRFSGSKSGNTASLTISGLQAEDEADYYCGSLRSNGDYVFGTGTTLTVL ) has Kd equal to 155

Others:
Per the records, this binder ( BCA7-2D8 antibody (antibody, V domains shown) VH: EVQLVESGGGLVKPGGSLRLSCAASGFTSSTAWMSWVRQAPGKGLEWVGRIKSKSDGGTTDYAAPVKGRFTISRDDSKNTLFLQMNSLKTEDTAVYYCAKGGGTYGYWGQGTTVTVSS VL: QSVLTQPASVSGSPGQSVTISCTGTSSSIGDSYYVSWYQQHPGKAPKLMIYDVSNRPSGVSNRFSGSKSGNTASLTISGLQAEDEADYYCGSYTSSGSYVFGTGTTLTVL ) has Kd equal to 83.8
